Source of measurements: PubChem BioAssay AID485344

subject.of.test: D(2) dopamine receptor (Homo sapiens) (UniProt P14416)
Sequence (P14416 whole entry, looked up): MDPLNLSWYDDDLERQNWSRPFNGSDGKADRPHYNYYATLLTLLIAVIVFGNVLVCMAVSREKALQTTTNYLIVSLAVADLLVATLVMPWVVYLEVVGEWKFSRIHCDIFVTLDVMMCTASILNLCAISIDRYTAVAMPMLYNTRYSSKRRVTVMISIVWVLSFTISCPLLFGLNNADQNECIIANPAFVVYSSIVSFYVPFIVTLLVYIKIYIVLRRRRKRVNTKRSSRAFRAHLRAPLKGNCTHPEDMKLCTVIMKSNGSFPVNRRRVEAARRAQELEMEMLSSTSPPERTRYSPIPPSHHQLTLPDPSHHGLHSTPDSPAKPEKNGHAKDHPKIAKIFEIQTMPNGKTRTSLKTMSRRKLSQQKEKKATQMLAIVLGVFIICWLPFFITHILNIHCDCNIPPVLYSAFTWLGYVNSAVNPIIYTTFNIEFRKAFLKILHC
test.summary: HTS Assay for Allosteric Antagonists of the Human D2 Dopamine Receptor: Primary Screen for Antagonists; note: 0% is about no effect
assay.context: HEK293 TREx D2 cells, calcium flux, dopamine EC80; at 10 µM; hits give high values
About 6,900 (2%) of roughly 340,000 compounds were called active. The sample holds actives, similar compounds and a random draw of the others, so the mix is not that of the screen.
Label condition met for high-side inhibition (at or above 20%) and condition not met for low-side inhibition (below it).

Look over these answered cases.
Check the entry COc1ccccc1CNS(=O)(=O)c1cc2c3c(c1)CCC(=O)N3CCC2 : does inhibition equal or exceed 20%? condition not met

How about O=C(CCc1nnc(CCCCc2ccccc2)o1)NC(c1cccnc1)C(F)(F)F (configuration not stated) ? condition met

Likewise for CC(CCn1cccn1)NC(=O)CCc1nnc(CCc2ccccc2)o1 (configuration not stated) ? condition not met

New cases:
Hello, I need to know if N=C1C(c2nc3ccccc3s2)=C(O)CN1NC(=O)c1ccc([N+](=O)[O-])cc1 has measured inhibition not below 20%. Thanks! condition met

What do you get for COc1ccccc1N1CC(O)=C(c2nc3ccccc3s2)C1=N ? condition not met

Okay, and CCCCN(C(=O)C(CCSC)N1C(=O)c2ccccc2C1=O)c1c(N)n(CCC)c(=O)[nH]c1=O (configuration not stated) ? condition not met

Request: O=C(c1ccc(=O)[nH]c1)N(Cc1ccco1)C1(C(=O)NC2CCCCC2)CCCCC1 condition met

Also CC(C)C[C@H](NC(=O)Nc1cccc(C(F)(F)F)c1)C(=O)O ? condition not met

What do you get for Cc1cccc(-c2ncc(CN3CCC(CO)(CCCc4ccccc4)CC3)cn2)c1 ? condition not met

How about COc1ccc(Cn2c(=S)[nH]c3cc(C(=O)NCCCN4CCOCC4)ccc3c2=O)cc1 ? condition met

Item: CCCCCCOc1ccc(OC(=O)c2cccnc2)cc1 condition not met

Also Cc1cc(-c2nnc(CCC(=O)NC(c3ccccc3)c3ccccc3)o2)no1 , if possible. condition not met

Okay, and O=C(O)c1ccccc1N=N/C(=N/Nc1cc(S(=O)(=O)O)ccc1O)c1ccccc1 ? condition met

Input Cc1ccc(CNC(=O)c2cccc3c2C(=O)c2ccc(N4CCC(C)CC4)cc2S3(=O)=O)cc1 condition not met

Then Nn1c(SCC(=O)NC(=O)NC2CCCC2)nnc1-c1ccccc1F ? condition met

Likewise for N#CCc1ccc(OC(=O)c2cccnc2)cc1 ? condition not met

For CC(C)NC(=O)NC(=O)CSc1nnc(-c2ccccc2F)n1N then? condition met

// query: Cc1ccc(N(C(=O)CC2NC(=O)NC2=O)C2(C(=O)NC3CCCC3)CCCCC2)cc1 (configuration not stated) condition not met

What do you have for CCN(CC)CCCNC(=O)c1ccc2c(=O)n(Cc3ccc4c(c3)OCO4)c(=S)[nH]c2c1 ? condition not met

Try CCNS(=O)(=O)c1ccc(NC(=O)Nc2cccc(C(F)(F)F)c2)cc1 next. condition met

How about COc1ccc(Cn2c(=S)[nH]c3cc(C(=O)N4CCCCC4)ccc3c2=O)cc1 ? condition not met

Ok, now O=C(Oc1ccc(Br)cc1)c1cccnc1 condition met

---

subject.of.test: D(2) dopamine receptor (Homo sapiens)
test.summary: HTS Assay for Allosteric Antagonists of the Human D2 Dopamine Receptor: Primary Screen for Antagonists; note: 0% is about no effect
assay.context: HEK293 TREx D2 cells, calcium flux, dopamine EC80; at 10 µM; hits give high values
Out of some 340,000 compounds screened, about 6,900 (2%) were called active. The sample holds actives, similar compounds and a random draw of the others, so the mix is not that of the screen.
metric: inhibition (%)
Use % as the unit, but write only the number.

Use the examples below as a reference point.
Query (molecule): CCCN(CC(=O)Nc1ccccc1C)C(=O)c1ccc2[nH]c3c(c2c1)CC(C)CC3 (stereo unspecified) ; field requested: inhibition -19.6

Next molecule up: Cc1ccc(NC(=O)COC(=O)CNC(=O)c2ccc(Cl)cc2Cl)cc1S(=O)(=O)N1CCOCC1 -10.2

And what about the molecule O=C(OCC(=O)N1CCc2ccccc21)C1CCCN1S(=O)(=O)c1ccc(Cl)cc1 (stereo unspecified) ? -11.4

One more molecule: CCCC(=O)OCC(=O)Nc1cc(Cl)ccc1[N+](=O)[O-] -3.56

Next entry: O=C(Nn1cnc2ccccc2c1=O)c1ccccc1 31.2

Same lookup for Cn1c(SCC(=O)Nc2ccc(N3CCOCC3)cc2)nnc1C(F)(F)F , please. 6.16

Also O=C(Nn1cnc2ccccc2c1=O)c1ccc([N+](=O)[O-])cc1Cl , if possible. -1.86

Note, next up: O=C(NCc1ccccc1CN1CCCC1)C1CCN(S(=O)(=O)c2ccc(Cl)cc2)CC1 9.19

***
Any idea what its inhibition is? The molecule is Cc1cc(C)cc(NC(=S)NCc2ccc(F)cc2)c1 17.7
